Target: CYP2D6 (Homo sapiens, UniProt P10635)
Sequence (P10635 whole entry): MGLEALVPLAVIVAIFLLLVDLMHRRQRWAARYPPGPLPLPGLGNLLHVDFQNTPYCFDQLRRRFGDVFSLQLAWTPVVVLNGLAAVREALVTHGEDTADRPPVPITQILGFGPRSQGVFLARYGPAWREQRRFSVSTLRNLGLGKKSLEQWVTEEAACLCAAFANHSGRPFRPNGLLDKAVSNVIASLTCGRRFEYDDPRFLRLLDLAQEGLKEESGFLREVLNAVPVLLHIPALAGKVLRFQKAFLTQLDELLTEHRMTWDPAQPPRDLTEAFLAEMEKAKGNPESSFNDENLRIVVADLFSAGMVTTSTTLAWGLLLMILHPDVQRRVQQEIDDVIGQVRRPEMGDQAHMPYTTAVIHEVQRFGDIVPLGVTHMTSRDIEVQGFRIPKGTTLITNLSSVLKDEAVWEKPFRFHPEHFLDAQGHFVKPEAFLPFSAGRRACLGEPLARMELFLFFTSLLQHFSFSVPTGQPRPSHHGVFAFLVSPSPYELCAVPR
Assay: In vitro inhibition of CYP2D6, observed Ki (apparent) values from the literature
pKi: −log10 of the molar value.
Measure: pKi

CN(C)CCCC1(c2ccc(F)cc2)OCc2cc(C#N)ccc21 (stereo not shown) : 4.98

(a) CNCCCC1(c2ccc(F)cc2)OCc2cc(C#N)ccc21 (stereo not shown)
(b) CN[C@H]1CC[C@@H](c2ccc(Cl)c(Cl)c2)c2ccccc21
(c) NCCC(Oc1ccc(C(F)(F)F)cc1)c1ccccc1 (stereo not shown)
Q: Put the entries in order of pKi, starting with the largest number. Labels, ranked as asked.
Ans: c, a, b
(c: 5.97, a: 5.44, b: 5.19)
